Give measured GI50 for each item. Keep answers brief.
# Tested on: CNS cancer cell lines
# Procedure text: NCI anticancer screen, SRB assay, panel summary
# Assay type: cell-based, human
# Test settings: Homo sapiens; six CNS cancer cell lines; exposure at least 48 hrs; read-out: GI50, range over the panel

Problem: So what's the measured GI50 for this one? COc1cc(/C=C/C(=O)c2cccc(-n3cc(-c4ccccc4)[nH]c3=O)c2)cc(OC)c1OC
Result: 630 to 4470 nM

Problem: So what's the measured GI50 for this one? COc1cc(/C=C/C(=O)c2cccc(-n3cc(-c4cc(OC)c(OC)c(OC)c4)[nH]c3=O)c2)cc(OC)c1OC
Result: 1230 to 4960 nM

Problem: So what's the measured GI50 for this one? O=C(/C=C/c1cccc(O)c1)c1cccc(-n2cc(-c3ccc(Cl)cc3)[nH]c2=O)c1
Result: 580 to 1920 nM

Problem: So what's the measured GI50 for this one? COc1cc(/C=C/C(=O)c2cccc(-n3cc(-c4ccc(Cl)cc4)[nH]c3=O)c2)ccc1O
Result: 1780 to 10500 nM

Problem: So what's the measured GI50 for this one? COc1cc(/C=C/C(=O)c2cccc(-n3cc(-c4ccccc4)[nH]c3=O)c2)ccc1O
Result: 1910 to 3900 nM

Problem: So what's the measured GI50 for this one? O=C(/C=C/c1cccc(O)c1)c1cccc(-n2cc(-c3ccc4ccccc4c3)[nH]c2=O)c1 [12b]
Result: 1090 to 1880 nM

Problem: So what's the measured GI50 for this one? COc1ccc(-c2cn(-c3cccc(C(=O)/C=C/c4ccc(O)c(OC)c4)c3)c(=O)[nH]2)cc1
Result: 2250 to 13900 nM

Problem: So what's the measured GI50 for this one? O=C(/C=C/c1cccc(O)c1)c1cccc(-n2cc(-c3ccccc3)[nH]c2=O)c1
Result: 1610 to 18200 nM
